Where do the numbers come from? From patent US20210395344A1.

test system: T1, Acro COVID S1 (S1N-C82E8) (SARS-CoV-2, UniProt P0DTC2 16-685)
T1 construct: domain: S1 (subunit 1)
assay procedure: phage ELISA
Assignment: determine reported specificity ELISA, fold over background for the given binders.
Your answer is read as fold over background, so omit the unit and give the number.

Q: # return recorded specificity ELISA, fold over background for input SARS-CoV-2 variant 1-31 (antibody, V domains shown) VH: EVQLLESGGGLVQPGGSLRLSCAASGFTFSSYAMNWVRQAPGKGLEWVSAISGSGGSTFYADSVKGRFTISRDNSKNTLYLQMNSLRAEDTAVYYCTRPPYGDYGDYWGQGTLVTVSS VL: QSALTQPASVSGSPGQSITISCTGTSSDVGKYNLVSWYQQHPGKAPKLMIYEGSQRPSGVSNRFSGSKSGNTASLTISGLQAEDEADYYCCSYAGSRTPVVFGGGTKLTVL
A: 30.4

Q: Assign specificity ELISA, fold over background to the following record: SARS-CoV-2 variant 1-38 (antibody, V domains shown) VH: EVQLLESGGGLVQPGGSLRLSCAASGITFSSYAMSWVRQAPGKGLEWVSGISGSGGSTYYADSVKGRFTISRDNSKNTLYLQMNSLRAEDTAVYYCAKHGSGTIFGVVIAKYYFDYWGQGTLVTVSS VL: QSALTQPASVSGSPGQSITISCTGTSSDIGSYNLVSWYQQHPGKAPKLMIYEGTKRPSGVSNRFSGSKSGNTASLTISGLQAEDEADYYCCSYAGSRTYVFGGGTKLTVL
A: 1.1
